Test system: male rats
test-description: Plasma metabolite profiling (GC-MS, LC-MS, SPE-LC-MS) in male rats dosed once daily over 28 days (OECD 407)
Format: in vivo, rat
settings: male rats, plasma, high dose, day 7
Marks after values point to notes of the source that are not given here.
// reported alpha-Tocopherol, ratio versus control for each item listed
observable: alpha-Tocopherol, ratio versus control

- CCNC(=O)[C@@H]1CCCN1C(=O)[C@H](CCCNC(=N)N)NC(=O)[C@H](CC(C)C)NC(=O)[C@@H](COC(C)(C)C)NC(=O)[C@H](Cc1ccc(O)cc1)NC(=O)[C@H](CO)NC(=O)[C@H](Cc1c[nH]c2ccccc12)NC(=O)[C@H](Cc1cnc[nH]1)NC(=O)[C@@H]1CCC(=O)N1 [Buserelin acetate a.c., Buserelin acetate]: 0.88 *
- C[C@@H]1CC2=CC(=O)CC[C@@H]2[C@H]2CC[C@@]3(C)[C@@H](CC[C@]3(C)O)[C@@H]21: 0.07 *
- CC(=O)O[C@]1(C(C)=O)CC[C@H]2[C@@H]3C=C(Cl)C4=CC(=O)[C@@H]5C[C@@H]5[C@]4(C)[C@H]3CC[C@@]21C [Cyproteron Acetate]: 1.22 *
- CC(=O)O[C@]1(C(C)=O)CC[C@H]2[C@@H]3C[C@H](C)C4=CC(=O)CC[C@]4(C)[C@H]3CC[C@@]21C: 0.82 *
- Cn1cc[nH]c1=S: 2.26 *
- C#C[C@]1(OC(C)=O)CC[C@H]2[C@@H]3CCC4=CC(=O)CC[C@@H]4[C@H]3CC[C@@]21C [Norethindrone acetate]: 0.32 *
- O=P1(NCCCl)OCCCN1CCCl (stereo not shown) [Ifosfamide]: 0.99
